system: 328373-195-R-J1-PDC complex spheroids, viability % test/control; assay: Anticancer human tumor 328373-195-R-J1-PDC patient-derived head and neck squamous carcinoma cell line growth inhibition [CLK]; settings: second compound 0.1 µM; first compound 0.0316 µM; stronger effect = lower value
quantity measured: viability, T/C (%)
Write the number in % without appending the unit.

Data request, read-out viability, T/C, for CC(Nc1ccc2c(c1)OCCn1cc(N3C(=O)OCC3C(F)F)nc1-2)C(N)=O (stereo not given) + CN1CCN(c2cc(C(=O)Nc3cc4cc(-c5cnn(C)c5)ccc4cn3)ccn2)CC1 75.8

Data request, read-out viability, T/C, for C=C(F)C(=O)N1CCN(c2nc(OCC3CCCN3C)nc3c2CCN(c2cccc4cccc(Cl)c24)C3)CC1CC#N (stereo not given) + CN1CCN(c2cc(C(=O)Nc3cc4cc(-c5cnn(C)c5)ccc4cn3)ccn2)CC1 80.5

Data request, read-out viability, T/C, for CCCS(=O)(=O)Nc1ccc(F)c(C(=O)c2c[nH]c3ncc(-c4ccc(Cl)cc4)cc23)c1F + CNC(=O)c1ccc(Nc2nc(OC3CCCC3)c3c(-c4ccc5nc(C)oc5c4)c[nH]c3n2)c(OC)c1 11.7

Data request, read-out viability, T/C, for COc1ccc([C@@H](O)c2cc(-c3ncnc4cc(N5CCOCC5)ccc34)c(F)cc2Cl)nn1 + CNC(=O)c1ccc(Nc2nc(OC3CCCC3)c3c(-c4ccc5nc(C)oc5c4)c[nH]c3n2)c(OC)c1 10.5

Data request, read-out viability, T/C, for COc1cccc2c1C(=O)c1c(O)c3c(c(O)c1C2=O)CC(O)(C(=O)CO)CC3OC1CC(N)C(O)C(C)O1 (stereo not given) + CNC(=O)c1ccc(Nc2nc(OC3CCCC3)c3c(-c4ccc5nc(C)oc5c4)c[nH]c3n2)c(OC)c1 8.2

Data request, read-out viability, T/C, for Nc1ccccc1NC(=O)c1ccc(CNC(=O)OCc2cccnc2)cc1 + CN1CCN(c2cc(C(=O)Nc3cc4cc(-c5cnn(C)c5)ccc4cn3)ccn2)CC1 74.5

Data request, read-out viability, T/C, for C=CC(=O)N1CCN(c2nc(=O)n(-c3c(C)ccnc3C(C)C)c3nc(-c4c(O)cccc4F)c(F)cc23)C(C)C1 (stereo not given) + CN1CCN(c2cc(C(=O)Nc3cc4cc(-c5cnn(C)c5)ccc4cn3)ccn2)CC1 80

Data request, read-out viability, T/C, for CC1(C)CCC(CN2CCN(c3ccc(C(=O)NS(=O)(=O)c4ccc(NCC5CCOCC5)c([N+](=O)[O-])c4)c(Oc4cnc5[nH]ccc5c4)c3)CC2)=C(c2ccc(Cl)cc2)C1 + CNC(=O)c1ccc(Nc2nc(OC3CCCC3)c3c(-c4ccc5nc(C)oc5c4)c[nH]c3n2)c(OC)c1 9.96

Data request, read-out viability, T/C, for COc1c(OCCCN2CCOCC2)ccc2c3n(c(=NC(=O)c4cnc(N)nc4)nc12)CCN3 + CN1CCN(c2cc(C(=O)Nc3cc4cc(-c5cnn(C)c5)ccc4cn3)ccn2)CC1 63.5

Data request, read-out viability, T/C, for CCCS(=O)(=O)Nc1ccc(F)c(C(=O)c2c[nH]c3ncc(-c4ccc(Cl)cc4)cc23)c1F + CN1CCN(c2cc(C(=O)Nc3cc4cc(-c5cnn(C)c5)ccc4cn3)ccn2)CC1 78.8

###

Tested on: 328373-195-R-J1-PDC complex spheroids, viability % test/control
Test: Anticancer human tumor 328373-195-R-J1-PDC cell line growth inhibition [CLK];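 note: spheroids exposed to the agents for 7 days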
Settings: second compound 1 µM; first compound 0.00316 µM; stronger effect = lower value
Description: A high-throughput screen of multi-cell type tumor spheroids was designed to identify active combinations of […] and targeted small molecules. Complex spheroids include a stromal component modeled by human endothelial cells (HUVEC) and fibroblasts modeled by human mesenchymal stem cells (MSCs). […] Compounds. […] If the clinical Cmax for an agent had not been determined, the highest concentration tested was 10 microM. […]
quantity measured: viability, T/C (%)
Write the number in % without appending the unit.

Data request, read-out viability, T/C, for COc1c(OCCCN2CCOCC2)ccc2c3n(c(=NC(=O)c4cnc(N)nc4)nc12)CCN3 + CN1CCN(c2cc(C(=O)Nc3cc4cc(-c5cnn(C)c5)ccc4cn3)ccn2)CC1 0.2

Data request, read-out viability, T/C, for CCc1c2c(nc3ccc(O)cc13)-c1cc3c(c(=O)n1C2)COC(=O)[C@]3(O)CC + CNC(=O)c1ccc(Nc2nc(OC3CCCC3)c3c(-c4ccc5nc(C)oc5c4)c[nH]c3n2)c(OC)c1 5.68

Data request, read-out viability, T/C, for Cn1ncnc1[C@H]1c2n[nH]c(=O)c3cc(F)cc(c23)N[C@@H]1c1ccc(F)cc1 + CNC(=O)c1ccc(Nc2nc(OC3CCCC3)c3c(-c4ccc5nc(C)oc5c4)c[nH]c3n2)c(OC)c1 9.32

The measured values listed here are drawn from PubChem BioAssay AID2060620.
